# Target Under Test: UniProt:P08684
# Sequence (P08684 whole entry): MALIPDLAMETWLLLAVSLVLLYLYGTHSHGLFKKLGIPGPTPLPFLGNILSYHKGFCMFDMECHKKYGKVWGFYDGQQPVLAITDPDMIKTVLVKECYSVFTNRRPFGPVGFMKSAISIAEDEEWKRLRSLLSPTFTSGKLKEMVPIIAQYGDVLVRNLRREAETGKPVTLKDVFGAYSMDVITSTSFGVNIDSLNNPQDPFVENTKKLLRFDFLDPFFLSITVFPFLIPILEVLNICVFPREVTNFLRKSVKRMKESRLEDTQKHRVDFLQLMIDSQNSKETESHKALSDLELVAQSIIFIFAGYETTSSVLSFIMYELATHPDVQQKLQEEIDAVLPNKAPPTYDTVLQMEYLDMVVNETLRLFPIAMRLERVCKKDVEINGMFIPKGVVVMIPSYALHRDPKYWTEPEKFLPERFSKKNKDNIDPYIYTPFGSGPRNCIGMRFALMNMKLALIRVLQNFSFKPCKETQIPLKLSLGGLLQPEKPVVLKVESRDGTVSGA
# Assay Text: Inhibition of CYP3A4 (unknown origin)
# Format: ADME
Assay Endpoint: IC50

What the record says about `Cc1cc(C[C@@H](NC(=O)N2CCC3(CC2)OC(=O)Nc2ncccc23)C(=O)N[C@@H](CC2CCNCC2)C(=O)N2CCN(c3ccncc3)CC2)cc2cn[nH]c12` : IC50 is > 50.1 µM

* * *

# Target Under Test: hERG (KCNH2) (Homo sapiens, UniProt Q12809)
# Sequence (Q12809 whole entry): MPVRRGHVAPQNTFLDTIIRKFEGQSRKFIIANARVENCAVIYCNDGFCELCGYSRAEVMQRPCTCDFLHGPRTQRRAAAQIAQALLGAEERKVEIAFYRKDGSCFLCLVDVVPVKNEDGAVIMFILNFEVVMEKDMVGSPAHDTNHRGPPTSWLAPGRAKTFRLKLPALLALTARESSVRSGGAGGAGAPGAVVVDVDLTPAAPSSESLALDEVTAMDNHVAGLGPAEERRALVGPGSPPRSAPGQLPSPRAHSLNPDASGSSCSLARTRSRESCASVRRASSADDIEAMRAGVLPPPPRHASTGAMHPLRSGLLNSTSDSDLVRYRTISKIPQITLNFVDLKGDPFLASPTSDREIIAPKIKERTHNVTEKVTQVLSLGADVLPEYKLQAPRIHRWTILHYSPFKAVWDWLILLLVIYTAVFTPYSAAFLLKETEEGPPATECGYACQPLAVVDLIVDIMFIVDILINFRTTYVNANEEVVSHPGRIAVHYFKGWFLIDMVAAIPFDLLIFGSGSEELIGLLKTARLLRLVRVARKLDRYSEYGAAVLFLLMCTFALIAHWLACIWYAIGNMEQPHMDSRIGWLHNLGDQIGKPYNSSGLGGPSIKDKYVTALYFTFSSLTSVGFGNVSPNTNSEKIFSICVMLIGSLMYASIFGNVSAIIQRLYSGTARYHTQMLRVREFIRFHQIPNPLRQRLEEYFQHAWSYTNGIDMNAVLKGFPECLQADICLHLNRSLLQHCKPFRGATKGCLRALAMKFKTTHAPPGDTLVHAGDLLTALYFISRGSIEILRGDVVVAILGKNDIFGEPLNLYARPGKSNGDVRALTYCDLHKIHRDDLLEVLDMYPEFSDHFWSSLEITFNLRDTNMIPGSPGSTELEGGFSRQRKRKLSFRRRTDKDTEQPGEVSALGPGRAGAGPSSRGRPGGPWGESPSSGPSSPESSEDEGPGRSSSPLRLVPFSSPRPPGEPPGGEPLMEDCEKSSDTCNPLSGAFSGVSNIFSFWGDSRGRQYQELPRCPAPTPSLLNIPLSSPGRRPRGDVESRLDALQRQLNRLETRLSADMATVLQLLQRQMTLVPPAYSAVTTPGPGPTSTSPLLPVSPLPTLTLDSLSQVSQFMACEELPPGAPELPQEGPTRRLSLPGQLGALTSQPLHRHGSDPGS
# Assay Text: Inhibition of human ERG at 300 uM relative to control
Assay Endpoint: inhibition at 300 µM (%)
Please give a number only; it is taken to be in %.

Entry Cc1cc(C[C@@H](NC(=O)N2CCC3(CC2)OC(=O)Nc2ncccc23)C(=O)N[C@@H](CC2CCNCC2)C(=O)N2CCN(c3ccncc3)CC2)cc2cn[nH]c12 [HTL-0022562] — recorded inhibition at 300 µM = 6
